Tgt: T1, muCD98hc ECD Avi-His (mouse, UniProt P10852 100-526)
T1 construct: biotinylated on the Avi tag where captured on streptavidin; also called Mouse CD98-AVI-His; Mouse CD98hc-AVI-His
T1 sequence: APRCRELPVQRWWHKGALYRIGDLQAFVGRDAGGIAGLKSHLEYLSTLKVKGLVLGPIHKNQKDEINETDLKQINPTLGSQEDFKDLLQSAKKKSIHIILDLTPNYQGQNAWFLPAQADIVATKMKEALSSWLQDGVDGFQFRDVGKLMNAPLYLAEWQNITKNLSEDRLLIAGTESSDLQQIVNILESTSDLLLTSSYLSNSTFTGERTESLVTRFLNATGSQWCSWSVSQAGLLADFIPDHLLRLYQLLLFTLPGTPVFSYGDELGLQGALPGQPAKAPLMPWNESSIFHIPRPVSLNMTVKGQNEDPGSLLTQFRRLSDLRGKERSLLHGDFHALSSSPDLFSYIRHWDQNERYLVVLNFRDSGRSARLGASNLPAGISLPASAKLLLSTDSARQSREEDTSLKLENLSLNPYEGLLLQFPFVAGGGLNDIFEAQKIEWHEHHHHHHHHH
Protocol description: ELISA, hybridoma supernatant
Please use criterion met whenever OD450 is not below 0.08, and criterion not met whenever it is.

Worked set:
CD98HC.03.010 (antibody, V domains shown, hybridoma IgG) VH: EVQLQQSGTELVKPGASVKLSCTASGLDIKDTYLHWVKQRPEQGLEWIGKIDPANGNTKYNPKFQGKATITADTSSNTAYLQLSSLTSEDTAVHYCTTPYYSGSSYGDYWGQGTTLTVSS VL: QIVLTQSPAIMSASPGEKVTLTCSASSSVSSSYLYWYQQKPGSSPKLWIYSTSNLASGVPARFSGSGSGTSYSLTISSMEAEDAASYFCHQWSRYPLTFGAGTKLELK	criterion not met
CD98HC.03.031 (antibody, V domains shown, hybridoma IgG) VH: QVQLQQSGAELVRPGVSVKISCKASGYTFTDYAMHWVKQSHAKSLEWIGVISTYYGDTTYNQKFKDKATMTVDKSSSTAYLELARLTSEDSAIYYCARVWLLSYAMDNWGQGTSVTVSS VL: DIVMTQSQRFMSTSVGDGVRITCKASQNVRTAVAWYQQKPGQSPKALINLAPNRHTGVPDRFTARGSGTDFTLTISNVQSEDLADYFCLQHWNYPLTFGAGTKLELK	criterion met
CD98HC.04.006 (antibody, V domains shown, hybridoma IgG) VH: EVNLVESGGDLVQPGGSLRLSCATSGFTFTDYFMSWVRQPPGKALEWLGFIRNKAYGYTTEYSASVKGRFTISRDNSQSIFYLQMNTLRLEDSATYYCARGPFISTAPFAYWGQGTLVTVSA VL: DIVMSQSPSSLAVSVGETVTMSCKSSQSLLYSSNQKNYLAWYQQKPGQSPKLLIYWGSTRESGVPDRFTGSGSGTDFTLTISSVKAEDLAVYYCQHYYGYPWTFGGGTKLEIK	criterion met
CD98HC.04.011 (antibody, V domains shown, hybridoma IgG) VH: DVQLQESGPDLVKPSQSLSLTCSVTVYSFTSVYSWHWIRQFPGNKLEWMGYIHDSGTTNYNPSLKSRISVTRDTSKNQFFLQLNSVTTEDTATYYCARGRPYGYDGFAYWGQGTLVTVSA VL: DIQMTQSSSYLSVSLGDRVTITCKASDHINNWLAWYQQKPGNAPRLLITGAVNLETGVPSRFSGSGSGKDYTLSITSLQTEDVATYYCQQYWSIPRTFGGGTNLEIK	criterion not met

Next, consider the following binder.
Data request: Is the recorded value of OD450 equal to or greater than 0.08 for this binder? CD98HC.04.047 (antibody, V domains shown, hybridoma IgG) VH: EVQLQESGPSLVKPSQTLSLTCSVTGDSITSGYWNWIRKFPGNKLEYMGYISYSGSTYYNPSLKGRVSITRDTSKNQYYLQLNSVTTEDTATYYCQRHVIYDYTWFAYWGQGTLVTVSA VL: QIVLTQSPAIMSASPGEKVTISCSASSSVGYMYWLQQKPGSSPKPWIYRTSILASGVPARFSGSGSGTSYSLTISSMEAEDAATYYCQQYQSYPLTFGAGTKLELK
Data returned: criterion met

These data points were gathered from patent US20250270341A1.
